# target.under.test: UniProtKB P21554
# Sequence (P21554 whole entry): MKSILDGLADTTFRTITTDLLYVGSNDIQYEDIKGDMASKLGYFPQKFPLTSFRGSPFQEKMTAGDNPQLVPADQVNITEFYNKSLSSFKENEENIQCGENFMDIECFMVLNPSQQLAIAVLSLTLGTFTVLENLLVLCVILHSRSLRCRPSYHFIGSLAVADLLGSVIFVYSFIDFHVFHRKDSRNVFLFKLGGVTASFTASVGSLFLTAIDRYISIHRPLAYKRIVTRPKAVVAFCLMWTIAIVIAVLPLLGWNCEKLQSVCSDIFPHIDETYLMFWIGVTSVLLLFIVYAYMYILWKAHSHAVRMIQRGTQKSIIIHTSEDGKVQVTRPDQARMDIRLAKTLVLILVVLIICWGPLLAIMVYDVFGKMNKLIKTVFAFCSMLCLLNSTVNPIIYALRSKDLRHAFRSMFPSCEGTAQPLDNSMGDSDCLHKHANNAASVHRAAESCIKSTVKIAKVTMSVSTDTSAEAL
# assay.remarks: Agonist activity at 3xHA tagged human CB1 receptor expressed in CHO-K1 cells assessed as reduction in forskolin-stimulated cAMP accumulation by measuring maximal efficacy incubated for 30 mins by cAMP assay relative to CP-55940
# Type: functional, cell-based
# assay.context: filed as agonist
quantity.name: Emax (%)
Just the number in %, nothing appended.

Below are worked cases with known answers.
{"columns": ["test.smiles", "Emax, %"],
 "data": [
  ["CC(C)(CCCCCCN=C=S)c1cc(O)c2c(c1)OC(C)(C)[C@@H]1CC[C@@H](CO)C[C@@H]21", 96],
  ["CC1(C)Oc2cc(C3(CCCCCCCN=C=S)CCCC3)cc(O)c2[C@@H]2C[C@H](CO)CC[C@H]21", 105],
  ["CC(C)(CCCCCCN=[N+]=[N-])c1cc(O)c2c(c1)OC(C)(C)[C@@H]1CC[C@@H](CO)C[C@@H]21", 99],
  ["CC1(C)Oc2cc(C3(CCCCCCC#N)CCCC3)cc(O)c2[C@@H]2C[C@H](CO)CC[C@H]21", 112],
  ["CC1(C)Oc2cc(C3(CCCCCCN=C=S)CCCC3)cc(O)c2[C@@H]2C[C@H](CO)CC[C@H]21", 104]
]}

Now examine the next entry.
Input CC(C)(CCCCCCC#N)c1cc(O)c2c(c1)OC(C)(C)[C@@H]1CC[C@@H](CO)C[C@@H]21 . Output Emax: 103

* * *

Quick reference: Ki of the listed items.
# target.under.test: Cannabinoid receptor 2 (Homo sapiens)
# Sequence (P34972 whole entry): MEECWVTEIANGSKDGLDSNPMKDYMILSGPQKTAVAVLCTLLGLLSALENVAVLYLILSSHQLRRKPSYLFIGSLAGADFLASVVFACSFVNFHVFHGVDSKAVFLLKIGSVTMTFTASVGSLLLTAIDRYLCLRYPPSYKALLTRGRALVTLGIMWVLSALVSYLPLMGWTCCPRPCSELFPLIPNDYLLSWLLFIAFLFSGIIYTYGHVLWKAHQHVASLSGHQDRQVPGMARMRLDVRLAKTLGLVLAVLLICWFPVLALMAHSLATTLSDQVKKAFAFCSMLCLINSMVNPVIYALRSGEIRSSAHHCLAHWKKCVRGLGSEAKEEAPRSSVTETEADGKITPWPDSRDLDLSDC
Kindly provide the numeric value in nM only, without the unit symbol.

Examples with their reported Ki follow.
{"columns": ["test.smiles", "units.of.measure", "Ki"],
 "data": [
  ["CC1(C)Oc2cc(C3(CCCCCCCN=[N+]=[N-])CCCC3)cc(O)c2[C@@H]2C[C@H](CO)CC[C@H]21", "nM", 1.5],
  ["CCCCCCC(C)(C)c1cc(O)c2c(c1)OC(C)(C)[C@@H]1CC[C@@H](CO)C[C@@H]21", "nM", 2.1]
]}

Now look at this entry.
Entry CC1(C)Oc2cc(C3(CCCCCCCN=C=S)CCCC3)cc(O)c2[C@@H]2C[C@H](CN=C=S)CC[C@H]21 , tested on Cannabinoid receptor 2 (Homo sapiens), has a reported Ki of 4.2

* * *

The next entries give measured Ki for UniProt P34972.
Give the number; nM is assumed, so skip it.

Some solved entries appear below for comparison.
{"columns": ["test.smiles", "units.of.measure", "Ki"],
 "data": [
  ["CC(C)(CCCCCCN=[N+]=[N-])c1cc(O)c2c(c1)OC(C)(C)[C@@H]1CC[C@@H](CO)C[C@@H]21", "nM", 1.4],
  ["CC1(C)Oc2cc(C3(CCCCCCN=[N+]=[N-])CCCC3)cc(O)c2[C@@H]2C[C@H](CO)CC[C@H]21", "nM", 0.8]
]}

Ki for UniProt P34972 with input CC(C)(CCCCCCC#N)c1cc(O)c2c(c1)OC(C)(C)[C@@H]1CC[C@@H](CO)C[C@@H]21 equals 0.4

Hey, UniProt P34972 data for CC1(C)Oc2cc(C3(CCCCCCC#N)CCCC3)cc(O)c2[C@@H]2C[C@H](CO)CC[C@H]21 : Ki came out at 1.4

* * *

# target.under.test: Cannabinoid receptor 2 (Homo sapiens)
# assay.remarks: Agonist activity at 3xHA tagged human CB2 receptor expressed in CHO-K1 cells assessed as reduction in forskolin-stimulated cAMP accumulation incubated for 30 mins by cAMP assay
Listed here are compounds together with their documented pEC50.
Please note pEC50 is a logarithmic value: minus log10 of concentration in mol/L. Answer with that number alone.

Some entries whose results are on file:
{"columns": ["test.smiles", "target.under.test", "pEC50"],
 "data": [
  ["CC1(C)Oc2cc(C3(CCCCCCC#N)CCCC3)cc(O)c2[C@@H]2C[C@H](CO)CC[C@H]21", "Cannabinoid receptor 2 (Homo sapiens)", 9.02],
  ["CC(C)(CCCCCCC#N)c1cc(O)c2c(c1)OC(C)(C)[C@@H]1CC[C@@H](CO)C[C@@H]21", "Cannabinoid receptor 2 (Homo sapiens)", 9.42],
  ["CC(C)(CCCCCCN=C=S)c1cc(O)c2c(c1)OC(C)(C)[C@@H]1CC[C@@H](CO)C[C@@H]21", "Cannabinoid receptor 2 (Homo sapiens)", 8.26],
  ["CC1(C)Oc2cc(C3(CCCCCCCN=C=S)CCCC3)cc(O)c2[C@@H]2C[C@H](CO)CC[C@H]21", "Cannabinoid receptor 2 (Homo sapiens)", 9.41],
  ["CC1(C)Oc2cc(C3(CCCCCCN=C=S)CCCC3)cc(O)c2[C@@H]2C[C@H](CO)CC[C@H]21", "Cannabinoid receptor 2 (Homo sapiens)", 8.57]
]}

Continue with the compound presented below.
Value of measured pEC50 for the entry CC(C)(CCCCCCN=[N+]=[N-])c1cc(O)c2c(c1)OC(C)(C)[C@@H]1CC[C@@H](CO)C[C@@H]21 : 9.11
